Assay remarks: Intrinsic dissolution rate, fibre optic UV probe with SOTAX dissolution apparatus
Assay type: physicochemical
Experimental conditions: pH 6.5 buffer, 37° C., 50 mg discs, UV at 260 nm, triplicate
Readout label: IDR (intrinsic dissolution rate) (mg/min/cm^2)

Compound | IDR (intrinsic dissolution rate) / mg/min/cm^2
COc1nc(C)cnc1NS(=O)(=O)c1cccnc1-c1ccc(-c2nnco2)cc1 | 0.05

(A) COc1nc(C)cnc1NS(=O)(=O)c1cccnc1-c1ccc(-c2nnco2)cc1.N [Compound (I) Ammonium Salt]
(B) COc1nc(C)cnc1NS(=O)(=O)c1cccnc1-c1ccc(-c2nnco2)cc1.NCCO [Compound (I) Ethanolamine Salt]
-- ask // returns A or B , whichever has the lower IDR (intrinsic dissolution rate) // output: label of the selected item
-- reply A
